Hello, the source for this data is patent US20220387602A1, in case you need it.

# maps each entry to its BTK degradation Amax
target: BTK (Homo sapiens); construct: the BTK open reading frame (ORF) was first shuttled from a pcDNA-DEST40-BTK vector; expressed in transfected cells; host or cells: HEK293A (Invitrogen R70507), lentiviral transduction, blasticidin selection; assay: BTK-GFP protein abundance flow cytometry assay in HEK293A; assay type: cell-based; settings: % protein remaining at the concentration at which maximum degradation is seen; HEK293A, 24 h
Readout label: BTK degradation Amax (%)

INSERT INTO results (compound, test_target, measured_number) VALUES
  ('COc1ccc(C(=O)N2CCC3(CCN(C(=O)CCCCCCCN4CCN(c5cc(Nc6ncc(C(=O)Nc7c(C)cccc7Cl)s6)nc(C)n5)CC4)CC3)CC2)cc1N1CCC(=O)NC1=O [compound 06]', 'BTK (Homo sapiens)', 2.1),
  ('Cc1c(NC(=O)N2C[C@H](CC(C)C)[C@@H](O)C2)cc(F)cc1-c1ncnc2[nH]c(-c3ccc(CN4CCN(CCOc5ccc(N6CCC(=O)NC6=O)cc5)CC4)cc3)cc12 [Compound 32]', 'BTK (Homo sapiens)', 16.7),
  ('Cc1c(NC(=O)N2C[C@H](CC(C)C)[C@@H](O)C2)cc(F)cc1-c1ncnc2[nH]c(-c3ccc(CN4CCC(OC5CCN(CCn6cccc(CN7CCC(=O)NC7=O)c6=O)CC5)CC4)cc3)cc12 [Compound 35]', 'BTK (Homo sapiens)', 6.6);

###

Biological target: BTK (Homo sapiens, UniProt Q06187)
Construct: the BTK open reading frame (ORF) was first shuttled from a pcDNA-DEST40-BTK vector; expressed in transfected cells; host or cells: HEK293A (Invitrogen R70507), lentiviral transduction, blasticidin selection
Sequence (Q06187 whole entry): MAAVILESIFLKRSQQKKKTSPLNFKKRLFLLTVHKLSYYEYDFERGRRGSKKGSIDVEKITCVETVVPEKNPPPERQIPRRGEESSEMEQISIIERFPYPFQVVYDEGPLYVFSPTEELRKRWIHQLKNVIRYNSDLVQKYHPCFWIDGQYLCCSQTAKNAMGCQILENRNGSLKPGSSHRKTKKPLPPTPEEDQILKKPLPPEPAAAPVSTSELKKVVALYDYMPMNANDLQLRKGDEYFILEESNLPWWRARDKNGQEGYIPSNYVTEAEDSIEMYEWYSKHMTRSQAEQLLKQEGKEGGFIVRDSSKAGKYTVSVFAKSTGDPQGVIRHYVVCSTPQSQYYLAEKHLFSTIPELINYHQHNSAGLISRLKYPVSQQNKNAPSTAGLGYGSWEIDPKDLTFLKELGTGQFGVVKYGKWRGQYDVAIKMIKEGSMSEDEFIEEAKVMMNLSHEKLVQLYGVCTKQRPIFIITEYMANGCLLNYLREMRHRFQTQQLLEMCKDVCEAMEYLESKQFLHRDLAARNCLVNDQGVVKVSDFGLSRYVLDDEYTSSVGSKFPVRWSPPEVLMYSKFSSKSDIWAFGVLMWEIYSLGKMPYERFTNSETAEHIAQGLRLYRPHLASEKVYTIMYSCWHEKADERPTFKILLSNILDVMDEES
Experiment: BTK-GFP protein abundance flow cytometry assay in HEK293A
Type: cell-based
Conditions: concentration at which 50% maximal degradation was observed; HEK293A BTK-GFP sensor cells, 24 h
Method: Degradation of BTK, CSK, ABL2, EPHA4 and YES1 was measured in HEK293A cells (Invitrogen R70507) expressing either BTK-GFP and RFP, CSK-GFP and mCherry, GFP-ABL2 and mCherry, EPHA4-GFP and mCherry, or YES1-GFP and mCherry from a stably integrated bicistronic BTK-GFP-iresRFP, CSK-GFP-CHYSEL-mCherry, GFP-ABL2-CHYSEL-mCherry, EPHA4-GFP-CHYSEL-mCherry, or YES1-GFP-CHYSEL-mCherry construct, respectively. […]
Readout label: DC50

INSERT INTO assay_data (compound, readout_label, result) VALUES
  ('Cc1c(NC(=O)c2ccc(C(C)(C)O)cc2F)cc(F)cc1-c1ncnc2[nH]c(-c3ccc(CN4CCOC(CN(C)CCOc5cccc(N6CCC(=O)NC6=O)c5)C4)cc3)cc12 (centres unmarked)', 'DC50', '21.7 nM'),
  ('Cc1c(NC(=O)c2ccc(C(C)(C)O)cc2F)cc(F)cc1-c1ncnc2[nH]c(-c3ccc(CNCCCCCCOc4cccc(N5CCC(=O)NC5=O)c4)cc3)cc12', 'DC50', '25.9 nM'),
  ('Cc1c(NC(=O)N2CC(O)(CC(C)(C)C)C2)cc(F)cc1-c1ncnc2[nH]c(-c3ccc(OCCCN4CCN(C(=O)COc5ccc(Cl)c(N6CCC(=O)NC6=O)c5)CC4)nc3)cc12', 'DC50', '3.7 nM'),
  ('COc1cc(C(=O)NCCCCN2CCN(Cc3ccc(-c4cc5c(-c6cc(F)cc(NC(=O)c7ccc(C(C)(C)O)cc7F)c6C)ncnc5[nH]4)cc3)CC2)ccc1N1CCC(=O)NC1=O', 'DC50', '> 3330 nM'),
  ('Cc1c(NC(=O)c2ccc(C(C)(C)O)cc2F)cc(F)cc1-c1ncnc2[nH]c(-c3ccc(CN4CCC(OC5CCN(CCn6cccc(CN7CCC(=O)NC7=O)c6=O)CC5)CC4)cc3)cc12', 'DC50', '2.1 nM');

###

biological target: UniProt:Q96SW2; assay: CRBN displacement assay Format 1 (fluorescence polarization, BodipyFL-lenalidomide probe Compound HH); type: binding
Sequence (Q96SW2 whole entry): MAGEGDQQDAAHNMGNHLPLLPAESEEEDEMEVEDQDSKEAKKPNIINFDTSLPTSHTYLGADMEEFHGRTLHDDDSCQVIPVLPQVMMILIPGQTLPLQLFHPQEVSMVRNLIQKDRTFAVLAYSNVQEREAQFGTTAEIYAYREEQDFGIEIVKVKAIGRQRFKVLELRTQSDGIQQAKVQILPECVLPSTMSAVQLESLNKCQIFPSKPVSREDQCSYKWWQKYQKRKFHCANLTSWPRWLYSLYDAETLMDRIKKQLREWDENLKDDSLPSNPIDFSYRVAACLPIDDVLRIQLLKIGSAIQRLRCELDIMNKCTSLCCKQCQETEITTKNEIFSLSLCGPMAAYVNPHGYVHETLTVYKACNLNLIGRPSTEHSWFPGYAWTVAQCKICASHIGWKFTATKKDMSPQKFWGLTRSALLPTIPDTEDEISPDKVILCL
Readout label: log10 of AC50 (log10 of the value in µM)

INSERT INTO measurements (compound, test_target, measured_number) VALUES
  ('Cc1c(NC(=O)c2ccc(C(C)(C)O)cc2F)cc(F)cc1-c1ncnc2[nH]c(-c3ccc(CN4CCN(CCNC(=O)COc5ccc(N6CCC(=O)NC6=O)cc5)CC4)cc3)cc12', 'UniProt:Q96SW2', 0.59),
  ('COc1ccc(C(=O)N2CCOC3(CCN(Cc4ccc(-c5cc6c(-c7cc(F)cc(NC(=O)c8ccc(C(C)(C)O)cc8F)c7C)ncnc6[nH]5)cc4)CC3)C2)cc1N1CCC(=O)NC1=O', 'UniProt:Q96SW2', 0.20),
  ('Cc1c(NC(=O)c2ccc(C(C)(C)O)cc2F)cc(F)cc1-c1ncnc2[nH]c(-c3ccc(CN4CCC(OC5CCN(CCn6cccc(CN7CCC(=O)NC7=O)c6=O)CC5)CC4)cc3)cc12', 'UniProt:Q96SW2', -0.04),
  ('Cc1ccc(S(=O)(=O)NCCCCCNCc2ccc(-c3cc4c(-c5cc(F)cc(NC(=O)c6ccc(C(C)(C)O)cc6F)c5C)ncnc4[nH]3)cc2)cc1N1CCC(=O)NC1=O', 'UniProt:Q96SW2', 0.49),
  ('Cc1c(NC(=O)c2ccc(C(C)(C)O)cc2F)cc(F)cc1-c1ncnc2[nH]c(-c3ccc(CN4CCOC(CN(C)CCOc5cccc(N6CCC(=O)NC6=O)c5)C4)cc3)cc12 (centres unmarked)', 'UniProt:Q96SW2', 0.61),
  ('Cc1c(NC(=O)c2ccc(C(C)(C)O)cc2F)cc(F)cc1-c1ncnc2[nH]c(-c3ccc(CNCCN4CCC(Oc5ccc(N6CCC(=O)NC6=O)cc5)CC4)cc3)cc12', 'UniProt:Q96SW2', 0.38),
  ('Cc1ncc(C(=O)NCCCCCN(C)Cc2ccc(-c3cc4c(-c5cc(F)cc(NC(=O)c6ccc(C(C)(C)O)cc6F)c5C)ncnc4[nH]3)cc2)cc1N1CCC(=O)NC1=O', 'UniProt:Q96SW2', 0.55),
  ('O=C1CCN(c2c(F)cc(C#CCN3CCNCC3)cc2F)C(=O)N1', 'UniProt:Q96SW2', 1.13),
  ('Cc1c(NC(=O)c2ccc(C(C)(C)O)cc2F)cc(F)cc1-c1ncnc2[nH]c(C3=CCN(C(=O)CCCCN4CCC(Oc5ccc(N6CCC(=O)NC6=O)cc5)CC4)CC3)cc12', 'UniProt:Q96SW2', 0.29);

###

target: BTK (Homo sapiens, UniProt Q06187); construct: the BTK open reading frame (ORF) was first shuttled from a pcDNA-DEST40-BTK vector; expressed in transfected cells; host or cells: HEK293A (Invitrogen R70507), lentiviral transduction, blasticidin selection; assay: BTK-GFP protein abundance flow cytometry assay in HEK293A; format: cell-based; details: % protein remaining at the concentration at which maximum degradation is seen; HEK293A, 24 h
Output 1 (yes) for records whose BTK degradation Amax is lower than 20%, 0 (no) for records at or above 20%.

INSERT INTO assay_data (molecule, assigned_category) VALUES
  ('Cc1c(NC(=O)c2ccc(C(C)(C)O)cc2F)cc(F)cc1-c1ncnc2[nH]c(-c3ccc(CN4CCN(CCN5CCC(Oc6ccc(N7CCC(=O)NC7=O)cc6)CC5)CC4)cc3)cc12 [Compound 28]', '0 (no)'),
  ('Cc1c(NC(=O)c2ccc(C(C)(C)O)cc2F)cc(F)cc1-c1ncnc2[nH]c(-c3ccc(CN(C)CCCCCCOc4cccc(N5CCC(=O)NC5=O)c4)cc3)cc12 [Compound 16]', '1 (yes)'),
  ('Cc1ccc(S(=O)(=O)NCCCCCNCc2ccc(-c3cc4c(-c5cc(F)cc(NC(=O)c6ccc(C(C)(C)O)cc6F)c5C)ncnc4[nH]3)cc2)cc1N1CCC(=O)NC1=O [Compound 18]', '1 (yes)'),
  ('Cc1c(NC(=O)c2ccc(C(C)(C)O)cc2F)cc(F)cc1-c1ncnc2[nH]c(-c3ccc(CN4CCN(C(=O)N5CCN(CCC#Cc6cccc(N7CCC(=O)NC7=O)c6)CC5)CC4)cc3)cc12 [Compound 03]', '0 (no)'),
  ('Cc1c(NC(=O)c2ccc(C(C)(C)O)cc2F)cc(F)cc1-c1ncnc2[nH]c(-c3ccc(CN4CCC5(CC4)CN(CCCc4ccc(N6CCC(=O)NC6=O)cc4)CCO5)cc3)cc12 [Compound 20]', '0 (no)'),
  ('Cc1ncc(C(=O)NCCCCCN(C)Cc2ccc(-c3cc4c(-c5cc(F)cc(NC(=O)c6ccc(C(C)(C)O)cc6F)c5C)ncnc4[nH]3)cc2)cc1N1CCC(=O)NC1=O [Compound 17]', '1 (yes)'),
  ('Cc1cc(OCCN2CCC(OC3CCN(Cc4ccc(-c5cc6c(-c7cc(F)cc(NC(=O)c8ccc(C(C)(C)O)cc8F)c7C)ncnc6[nH]5)cc4)CC3)CC2)ccc1N1CCC(=O)NC1=O [Compound 30]', '1 (yes)'),
  ('Cc1c(NC(=O)c2ccc(C(C)(C)O)cc2F)cc(F)cc1-c1ncnc2[nH]c(-c3ccc(CN4CCOC(CN(C)CCOc5cccc(N6CCC(=O)NC6=O)c5)C4)cc3)cc12 (stereo not shown) [Compound 15]', '0 (no)'),
  ('Cc1c(NC(=O)c2ccc(C(C)(C)O)cc2F)cc(F)cc1-c1ncnc2[nH]c(-c3ccc(CN4CCN(CCNC(=O)COc5ccc(N6CCC(=O)NC6=O)cc5)CC4)cc3)cc12 [Compound 26]', '1 (yes)'),
  ('Cc1c(NC(=O)c2ccc(C(C)(C)O)cc2F)cc(F)cc1-c1ncnc2[nH]c(-c3ccc(CN4CCC(CCNC(=O)COc5cccc(N6CCC(=O)NC6=O)c5)CC4)cc3)cc12 [Compound 11]', '1 (yes)');
